- System: A673/TR/shEF
- measurement protocol: cell viability (LOESS-normalised, relative to median of negative controls) (log2 ratio); higher = more viable cells (less compound effect), active = hit call of the paper (over 3 MAD below the median)
- condition notes: 0.25 µM; library screen: screen2; EWS-FLI1 expression: low (doxycycline-induced shRNA knockdown); treatment time: 72 h
Screen size: about 3,200 compounds; about 300 (9.4%) showed activity. The sample as a whole holds a higher share of actives than the screen did.
Field: cell viability (log2). Provide a value for each of the compounds that follow.

*Q* # query: cell viability (log2) of entry O=S(=O)(c1cccc2c(Cl)cccc12)N1CCCNCC1
*A* 0.144 (inactive)

*Q* # repeat for OC1C=CC(Br)C(O)C1O (configuration not stated)
*A* 0.141 (inactive)

*Q* # repeat for O=C1Nc2ccc(I)cc2/C1=C/c1cc(Br)c(O)c(Br)c1
*A* 0.0983 (inactive)

*Q* # repeat for COC(=O)Nc1nc2ccc(C(=O)c3cccs3)cc2[nH]1
*A* -0.105 (active)

*Q* # repeat for CN(C)c1ccc(/C=C2\C(=O)Nc3ccccc32)cc1
*A* -0.565 (active)

*Q* # repeat for CC(C(=O)O)c1cccc(C(=O)c2ccccc2)c1 (configuration not stated)
*A* 0.13 (inactive)

*Q* # repeat for O=c1c(O)c(-c2cc(O)c(O)c(O)c2)oc2cc(O)cc(O)c12
*A* 0.093 (inactive)

*Q* # repeat for NCCNC(=O)Cc1ccc(NC(=O)Cc2ccc(Nc3ncnc4c3ncn4C3OC(CO)C(O)C3O)cc2)cc1 (configuration not stated)
*A* 0.142 (inactive)

*Q* # repeat for O=S(=O)(c1cccc2cnccc12)N1CCNCC1
*A* 0.045 (inactive)

*Q* # repeat for CCCCCCCCCCCCCCCCCC(=O)OC(CC(=O)O)C[N+](C)(C)C (configuration not stated)
*A* 0.0207 (inactive)

*Q* # repeat for COc1cccc(C(=O)NCCN2CCN(c3ccc(Cl)cc3)CC2)c1
*A* 0.2 (inactive)

*Q* # repeat for COc1cc2nc(N3CCN(C(=O)C4=C[C@H]5C=C[C@@H]4CC5)CC3)nc(N)c2cc1OC
*A* 0.0668 (inactive)

*Q* # repeat for O=C(O)CCC(=O)OCC(NC(=O)C(Cl)Cl)C(O)c1ccc([N+](=O)[O-])cc1 (configuration not stated)
*A* -0.0115 (inactive)

*Q* # repeat for CC[C@H](C)C(=O)O[C@H]1CCC=C2C=C[C@H](C)[C@H](CC[C@@H]3C[C@@H](O)CC(=O)O3)[C@H]21
*A* 0.108 (inactive)

*Q* # repeat for CCCCN1CCC(COC(=O)c2cc(Cl)c(N)c3c2OCCO3)CC1
*A* -0.0248 (inactive)

*Q* # repeat for O=c1c(O)c(-c2ccc(O)c(O)c2)oc2cc(O)cc(O)c12
*A* 0.0619 (inactive)

*Q* # repeat for COC(=O)Nc1nc2ccc(Sc3ccccc3)cc2[nH]1
*A* 0.0195 (inactive)

*Q* # repeat for COC1=C(OC)C(=O)c2ccccc2C1=O
*A* 0.0608 (inactive)

*Q* # repeat for CCCCCCCCCCCCCCCCCC(=O)NCC(COP(=O)([O-])OCC[N+](C)(C)C)OCC (configuration not stated)
*A* 0.0979 (inactive)

*Q* # repeat for CCCCCCCCCCCCCCCC(=O)OC(CC(=O)[O-])C[N+](C)(C)C (configuration not stated)
*A* 0.133 (inactive)

*Q* # repeat for CCCN(CCC)C(=O)C(CCC(=O)O)NC(=O)c1ccccc1 (configuration not stated)
*A* 0.0785 (inactive)

*Q* # repeat for C[C@H](Cc1ccccc1)Nc1ncnc2c1ncn2[C@@H]1O[C@H](CO)[C@H](O)C1O (some centres not stated)
*A* 0.14 (inactive)
